These entries and their values trace back to PubChem BioAssay AID2060907.

test system: 388556-164-R-J1-PDC complex spheroid viability; experiment: Anticancer human tumor 388556-164-R-J1-PDC patient-derived colon adenocarcinoma cell line growth inhibition [RAS]; conditions: second compound 0.03 µM; first compound 10 µM; active compounds read low
// values below are reported viability, T/C

Compound	viability, T/C [%]
CCC(CC)c1cc(NC2CCC(N)C2)n2nccc2n1 (centres undefined) + CCn1c(-c2cc(N3CCN(C)CC3)cnc2C(C)OC)c2c3cc(ccc31)-c1csc(n1)CC(NC(=O)C1CC1C)C(=O)N1CCCC(N1)C(=O)OCC(C)(C)C2	11.5
Cc1nc(N2CCC3(CC2)COC(C)C3N)c(CO)nc1Sc1ccnc(N)c1Cl (centres undefined) + CCn1c(-c2cc(N3CCN(C)CC3)cnc2C(C)OC)c2c3cc(ccc31)-c1csc(n1)CC(NC(=O)C1CC1C)C(=O)N1CCCC(N1)C(=O)OCC(C)(C)C2	23.5
NC1c2ccccc2OC12CCN(c1cnc3c(N4CCCc5ncccc54)n[nH]c3n1)CC2 (centres undefined) + CCn1c(-c2cc(N3CCN(C)CC3)cnc2C(C)OC)c2c3cc(ccc31)-c1csc(n1)CC(NC(=O)C1CC1C)C(=O)N1CCCC(N1)C(=O)OCC(C)(C)C2	18.6
CC(C)NCC(C(=O)N1CCN(c2ncnc3c2C(C)CC3O)CC1)c1ccc(Cl)cc1 (centres undefined) + CCn1c(-c2cccnc2C(C)OC)c2c3cc(ccc31)N1CCOC(CC(NC(=O)C(C(C)C)N(C)C(=O)C3(F)CCN(C(=O)C#CC(C)(C)N(C)C)CC3)C(=O)N3CCCC(N3)C(=O)OCC(C)(C)C2)C1	81.5

---

test system: 388556-164-R-J1-PDC complex spheroid viability; assay: Anticancer human tumor 388556-164-R-J1-PDC cell line growth inhibition [RAS]; conditions: second compound 0.1 µM; first compound 0.316 µM; active compounds read low;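 note: spheroids exposed to compound for 7 days before readout; 100% = DMSO vehicle control luminescence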

Molecule	Units of measure	viability, T/C
Cc1nc(N2CCC3(CC2)COC(C)C3N)c(CO)nc1Sc1ccnc(N)c1Cl (stereo not drawn) + C=CC(=O)N1CCN(c2nc(OCC3CCCN3C)nc3c(F)c(-c4nc(N)cc(C)c4C(F)(F)F)c(Cl)cc23)C(C)C1	%	70.5
CC(Nc1ccc2c(c1)OCCn1cc(N3C(=O)OCC3C(F)F)nc1-2)C(N)=O (stereo not drawn) + C#Cc1c(F)ccc2cc(O)cc(-c3ncc4c(N5CC6CCC(C5)N6)nc(OCC56CCCN5CC(F)C6)nc4c3F)c12	%	83.3
Cc1nc(N2CCC3(CC2)COC(C)C3N)c(CO)nc1Sc1ccnc(N)c1Cl (stereo not drawn) + C#Cc1c(F)ccc2cc(O)cc(-c3ncc4c(N5CC6CCC(C5)N6)nc(OCC56CCCN5CC(F)C6)nc4c3F)c12	%	71.8
CC(=O)OC12COC1CC(O)C1(C)C(=O)C(O)C3=C(C)C(OC(=O)C(O)C(NC(=O)OC(C)(C)C)c4ccccc4)CC(O)(C(OC(=O)c4ccccc4)C21)C3(C)C (stereo not drawn) + C#Cc1c(F)ccc2cc(O)cc(-c3ncc4c(N5CC6CCC(C5)N6)nc(OCC56CCCN5CC(F)C6)nc4c3F)c12	%	71.5
CC1(O)CCCC1n1c(=O)c(C(F)F)cc2cnc(NC3CCN(S(C)(=O)=O)CC3)nc21 (stereo not drawn) + C#Cc1c(F)ccc2cc(O)cc(-c3ncc4c(N5CC6CCC(C5)N6)nc(OCC56CCCN5CC(F)C6)nc4c3F)c12	%	99.4
CC1(O)CCCC1n1c(=O)c(C(F)F)cc2cnc(NC3CCN(S(C)(=O)=O)CC3)nc21 (stereo not drawn) + C=CC(=O)N1CCN(c2nc(OCC3CCCN3C)nc3c(F)c(-c4nc(N)cc(C)c4C(F)(F)F)c(Cl)cc23)C(C)C1	%	99.5
C=CC(=O)Nc1cc(Nc2nccc(-c3cn(C)c4ccccc34)n2)c(OC)cc1N(C)CCN(C)C + C#Cc1c(F)ccc2cc(O)cc(-c3ncc4c(N5CC6CCC(C5)N6)nc(OCC56CCCN5CC(F)C6)nc4c3F)c12	%	74.5
Nc1ccn(C2OC(CO)C(O)C2(F)F)c(=O)n1 (stereo not drawn) + C=CC(=O)N1CCN(c2nc(OCC3CCCN3C)nc3c(F)c(-c4nc(N)cc(C)c4C(F)(F)F)c(Cl)cc23)C(C)C1	%	73.8
Nc1ccn(C2OC(CO)C(O)C2(F)F)c(=O)n1 (stereo not drawn) + C#Cc1c(F)ccc2cc(O)cc(-c3ncc4c(N5CC6CCC(C5)N6)nc(OCC56CCCN5CC(F)C6)nc4c3F)c12	%	74.9
C[C@@H](NC(=O)c1ncnc(N)c1Cl)c1ncc(C(=O)Nc2cc(C(F)(F)F)c(Cl)cn2)s1 + C=CC(=O)N1CCN(c2nc(OCC3CCCN3C)nc3c(F)c(-c4nc(N)cc(C)c4C(F)(F)F)c(Cl)cc23)C(C)C1	%	110
NC1c2ccccc2OC12CCN(c1cnc3c(N4CCCc5ncccc54)n[nH]c3n1)CC2 (stereo not drawn) + C=CC(=O)N1CCN(c2nc(OCC3CCCN3C)nc3c(F)c(-c4nc(N)cc(C)c4C(F)(F)F)c(Cl)cc23)C(C)C1	%	45.7
CC(C)NCC(C(=O)N1CCN(c2ncnc3c2C(C)CC3O)CC1)c1ccc(Cl)cc1 (stereo not drawn) + C=CC(=O)N1CCN(c2nc(OCC3CCCN3C)nc3c(F)c(-c4nc(N)cc(C)c4C(F)(F)F)c(Cl)cc23)C(C)C1	%	99.5
CCN1CCN(Cc2ccc(Nc3ncc(F)c(-c4cc(F)c5nc(C)n(C(C)C)c5c4)n3)nc2)CC1 + C#Cc1c(F)ccc2cc(O)cc(-c3ncc4c(N5CC6CCC(C5)N6)nc(OCC56CCCN5CC(F)C6)nc4c3F)c12	%	91.6
C=CC(=O)Nc1cc(Nc2nccc(-c3cn(C)c4ccccc34)n2)c(OC)cc1N(C)CCN(C)C + C=CC(=O)N1CCN(c2nc(OCC3CCCN3C)nc3c(F)c(-c4nc(N)cc(C)c4C(F)(F)F)c(Cl)cc23)C(C)C1	%	72.9
C=CC(=O)N1CCN(c2nc(OCC3CCCN3C)nc3c(F)c(-c4nc(N)cc(C)c4C(F)(F)F)c(Cl)cc23)C(C)C1 (stereo not drawn) + C#Cc1c(F)ccc2cc(O)cc(-c3ncc4c(N5CC6CCC(C5)N6)nc(OCC56CCCN5CC(F)C6)nc4c3F)c12	%	112
CCN1CCN(Cc2ccc(Nc3ncc(F)c(-c4cc(F)c5nc(C)n(C(C)C)c5c4)n3)nc2)CC1 + C=CC(=O)N1CCN(c2nc(OCC3CCCN3C)nc3c(F)c(-c4nc(N)cc(C)c4C(F)(F)F)c(Cl)cc23)C(C)C1	%	91.5
C[C@@H](NC(=O)c1ncnc(N)c1Cl)c1ncc(C(=O)Nc2cc(C(F)(F)F)c(Cl)cn2)s1 + C#Cc1c(F)ccc2cc(O)cc(-c3ncc4c(N5CC6CCC(C5)N6)nc(OCC56CCCN5CC(F)C6)nc4c3F)c12	%	120
CC(=O)OC12COC1CC(O)C1(C)C(=O)C(O)C3=C(C)C(OC(=O)C(O)C(NC(=O)OC(C)(C)C)c4ccccc4)CC(O)(C(OC(=O)c4ccccc4)C21)C3(C)C (stereo not drawn) + C=CC(=O)N1CCN(c2nc(OCC3CCCN3C)nc3c(F)c(-c4nc(N)cc(C)c4C(F)(F)F)c(Cl)cc23)C(C)C1	%	72.4

---

tested on: 388556-164-R-J1-PDC complex spheroid viability; test: Anticancer human tumor 388556-164-R-J1-PDC cell line growth inhibition [RAS]; conditions: second compound 0.3 µM; first compound 3.16 µM; active compounds read low;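 note: spheroids exposed to compound for 7 days before readout; 100% = DMSO vehicle control luminescence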
// values below are reported viability, T/C

Compound	viability, T/C, %
NC1c2ccccc2OC12CCN(c1cnc3c(N4CCCc5ncccc54)n[nH]c3n1)CC2 (centres undefined) + CCn1c(-c2cccnc2C(C)OC)c2c3cc(ccc31)N1CCOC(CC(NC(=O)C(C(C)C)N(C)C(=O)C3(F)CCN(C(=O)C#CC(C)(C)N(C)C)CC3)C(=O)N3CCCC(N3)C(=O)OCC(C)(C)C2)C1	30.6
CC(Nc1ccc2c(c1)OCCn1cc(N3C(=O)OCC3C(F)F)nc1-2)C(N)=O (centres undefined) + CCn1c(-c2cccnc2C(C)OC)c2c3cc(ccc31)N1CCOC(CC(NC(=O)C(C(C)C)N(C)C(=O)C3(F)CCN(C(=O)C#CC(C)(C)N(C)C)CC3)C(=O)N3CCCC(N3)C(=O)OCC(C)(C)C2)C1	61.4
C[C@@H](NC(=O)c1ncnc(N)c1Cl)c1ncc(C(=O)Nc2cc(C(F)(F)F)c(Cl)cn2)s1 + CCn1c(-c2cccnc2C(C)OC)c2c3cc(ccc31)N1CCOC(CC(NC(=O)C(C(C)C)N(C)C(=O)C3(F)CCN(C(=O)C#CC(C)(C)N(C)C)CC3)C(=O)N3CCCC(N3)C(=O)OCC(C)(C)C2)C1	115
C[C@@H](NC(=O)c1ncnc(N)c1Cl)c1ncc(C(=O)Nc2cc(C(F)(F)F)c(Cl)cn2)s1 + CCn1c(-c2cc(N3CCN(C)CC3)cnc2C(C)OC)c2c3cc(ccc31)-c1csc(n1)CC(NC(=O)C1CC1C)C(=O)N1CCCC(N1)C(=O)OCC(C)(C)C2	38.5
